Data credit: PubChem BioAssay AID588689

Listed here are molecules together with their documented inhibition.
TARGET_DESC: Genome polyprotein (Dengue virus type 2 (strain 16681-PDK53)) (UniProt P29991)
ASSAY_METHOD_TEXT: flavivirus cap methylation enzyme inhibition – biochemical, confirmation dose response, primary screen (AID 588689)
STUDY_CONDITIONS: Dengue-2 NS5 methyltransferase capping enzyme assay, at 25 µM, stronger effect = higher value
The whole screen tested about 340,000 compounds, of which about 1,000 (0.29%) were called active. The list is a sample of the results. Potency and affinity values are given separately.
Note: unit % is implicit; provide only the numeric part.

I would be grateful if you could share the reported inhibition for Cc1nnc(NC(=O)CC23CC4CC(CC(C4)C2)C3)s1 .
-6.26

I would be grateful if you could share the reported inhibition for COCc1nc(-c2cc(Br)ccc2OC)no1 .
-4.06

I would be grateful if you could share the reported inhibition for COc1ccc(C(C)=O)cc1COC(=O)CNC(=O)C1CCCCC1 .
10.9

I would be grateful if you could share the reported inhibition for CC(C)NC(=O)C(=O)Nc1ccc2c(c1)N(S(=O)(=O)c1cccs1)CCC2 .
2.2

I would be grateful if you could share the reported inhibition for C=CCn1c(CC(C)(C)C)nc2ccccc21 .
-5.1

We now examine a further molecule.
I would be grateful if you could share the reported inhibition for Cc1c(Cl)cccc1NC(=S)N(Cc1cccnc1)Cc1ccccc1Cl .
-4.52

====

TARGET_DESC: Genome polyprotein (Dengue virus type 2 (strain 16681-PDK53))
ASSAY_METHOD_TEXT: flavivirus cap methylation enzyme inhibition – biochemical, confirmation dose response, primary screen (AID 588689)
STUDY_CONDITIONS: Dengue-2 NS5 methyltransferase capping enzyme assay, at 25 µM, stronger effect = higher value
Out of some 340,000 compounds screened, about 1,000 (0.29%) were called active. The list is a sample of the results. Potency and affinity values are given separately.
Listed here are compounds together with their documented inhibition.

Tell me reported inhibition for COCC(C)NC(=O)c1cc(-c2ccccc2OC)on1 (configuration not stated) , tested with Genome polyprotein (Dengue virus type 2 (strain 16681-PDK53)).
-5.61% (inactive)

Tell me reported inhibition for COc1ccc(-c2csc(NS(=O)(=O)c3ccc([N+](=O)[O-])cc3)n2)cc1 , tested with Genome polyprotein (Dengue virus type 2 (strain 16681-PDK53)).
19.5% (inactive)

Tell me reported inhibition for COc1ccc(/C=C2/SC(=O)N(NS(=O)(=O)c3ccccc3)C2=S)cc1OC , tested with Genome polyprotein (Dengue virus type 2 (strain 16681-PDK53)).
15.7% (inactive)

Tell me reported inhibition for Cc1ccc(NC(=O)CSc2nncs2)cc1Cl , tested with Genome polyprotein (Dengue virus type 2 (strain 16681-PDK53)).
-5.19% (inactive)

New cases:
Tell me reported inhibition for O=S1(=O)N=C(SCCO)c2ccccc21 , tested with Genome polyprotein (Dengue virus type 2 (strain 16681-PDK53)).
1.39% (inactive)

Tell me reported inhibition for Nc1ccccc1-c1nnc(SCc2ccccc2F)[nH]c1=O , tested with Genome polyprotein (Dengue virus type 2 (strain 16681-PDK53)).
2.71% (inactive)

Tell me reported inhibition for O=C(O)/C(=C\c1ccc(Cl)c([N+](=O)[O-])c1)c1ccc(S(=O)(=O)N2CCCC2)s1 , tested with Genome polyprotein (Dengue virus type 2 (strain 16681-PDK53)).
0.37% (inactive)

Tell me reported inhibition for CC(C)C(C(=O)NC1CCCC1)N(Cc1ccco1)C(=O)CNS(=O)(=O)c1ccccc1 (configuration not stated) , tested with Genome polyprotein (Dengue virus type 2 (strain 16681-PDK53)).
-8.96% (inactive)

Tell me reported inhibition for Cc1ccc(S(=O)(=O)N/N=C/c2ccc(O)c(O)c2)cc1[N+](=O)[O-] , tested with Genome polyprotein (Dengue virus type 2 (strain 16681-PDK53)).
0.74% (inactive)

Tell me reported inhibition for O=S(=O)(Nc1nc(-c2ccccc2)cs1)c1cccc(C(F)(F)F)c1 , tested with Genome polyprotein (Dengue virus type 2 (strain 16681-PDK53)).
19.9% (inactive)

Tell me reported inhibition for O=C(CCCOc1cccc(Br)c1)NCCOc1ccccc1 , tested with Genome polyprotein (Dengue virus type 2 (strain 16681-PDK53)).
-4.07% (inactive)
